- Test system: Mycobacterium tuberculosis Erdman (autoluminescent)
- protocolSummary: Einf, fitted maximum growth inhibition of three-drug combination (fraction); higher = stronger maximal inhibition
- testContext: in vitro model: cholesterol 0.05 mM; time point: constant (~7 days, model-specific)
parameter: Einf

get_value(item= CC(C)/N=c1\cc2n(-c3ccc(Cl)cc3)c3ccccc3nc-2cc1Nc1ccc(Cl)cc1 [clofazimine] + NC(=O)c1cnccn1 [pyrazinamide] + CO[C@H]1/C=C/O[C@@]2(C)Oc3c(C)c(O)c4c(O)c(c(/C=N/N5CCN(C6CCCC6)CC5)c(O)c4c3C2=O)NC(=O)/C(C)=C\C=C\[C@H](C)[C@H](O)[C@@H](C)[C@@H](O)[C@@H](C)[C@H](OC(C)=O)[C@@H]1C [rifapentine] , readout=Einf) returns 0.621

get_value(item= COc1nc2ccc(Br)cc2cc1[C@@H](c1ccccc1)[C@@](O)(CCN(C)C)c1cccc2ccccc12 [bedaquiline] + CC[C@@H](CO)NCCN[C@@H](CC)CO [ethambutol] + CC(=O)NC[C@H]1CN(c2ccc(N3CCOCC3)c(F)c2)C(=O)O1 [linezolid] , readout=Einf) returns 0.783

The measurements presented in this section are drawn from the supplement of paper PMC8617591.
